Where do these numbers come from? They come from the supplement of paper PMC10567573.

B1: CLCN6 (parent)
chain: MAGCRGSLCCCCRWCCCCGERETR

Variants of: B1
Assay: protein stability index of a GFP-peptide fusion (GPS, HEK-293T) (PSI 1-6); higher = more stable;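 also: lentivirally expressed fusions sorted by FACS into six bins by GFP to DsRed ratio, PSI derived from sequencing read proportions per bin multiplied by bin number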
Conditions: c terminus: a fixed tail appended
recorded_metric: protein stability index

// known answers, use as guide
variant_key | recorded_metric | measurement
A2M | protein stability index | 1.73
R13N | protein stability index | 2.4
C15M | protein stability index | 1.65
L8V | protein stability index | 2.21

Please fill in: protein stability index reported for G6R = 2.52

Please fill in: protein stability index reported for C12F = 3.72

Please fill in: protein stability index reported for M1H = 2.14

Please fill in: protein stability index reported for C10K = 2.07

Please fill in: protein stability index reported for R21L = 1.76

Please fill in: protein stability index reported for M1G = 1.86

Please fill in: protein stability index reported for A2Y = 1.98

Please fill in: protein stability index reported for C10D = 1.24

Please fill in: protein stability index reported for C16W = 2.86

Please fill in: protein stability index reported for C15P = 1.5

Please fill in: protein stability index reported for C15G = 2.04

Please fill in: protein stability index reported for R21N = 1.87
